meta.source: patent US20250289829A1

- TARGET_OR_SYSTEM: USP28 (Homo sapiens, UniProt Q96RU2)
- Sequence (Q96RU2 1-1077): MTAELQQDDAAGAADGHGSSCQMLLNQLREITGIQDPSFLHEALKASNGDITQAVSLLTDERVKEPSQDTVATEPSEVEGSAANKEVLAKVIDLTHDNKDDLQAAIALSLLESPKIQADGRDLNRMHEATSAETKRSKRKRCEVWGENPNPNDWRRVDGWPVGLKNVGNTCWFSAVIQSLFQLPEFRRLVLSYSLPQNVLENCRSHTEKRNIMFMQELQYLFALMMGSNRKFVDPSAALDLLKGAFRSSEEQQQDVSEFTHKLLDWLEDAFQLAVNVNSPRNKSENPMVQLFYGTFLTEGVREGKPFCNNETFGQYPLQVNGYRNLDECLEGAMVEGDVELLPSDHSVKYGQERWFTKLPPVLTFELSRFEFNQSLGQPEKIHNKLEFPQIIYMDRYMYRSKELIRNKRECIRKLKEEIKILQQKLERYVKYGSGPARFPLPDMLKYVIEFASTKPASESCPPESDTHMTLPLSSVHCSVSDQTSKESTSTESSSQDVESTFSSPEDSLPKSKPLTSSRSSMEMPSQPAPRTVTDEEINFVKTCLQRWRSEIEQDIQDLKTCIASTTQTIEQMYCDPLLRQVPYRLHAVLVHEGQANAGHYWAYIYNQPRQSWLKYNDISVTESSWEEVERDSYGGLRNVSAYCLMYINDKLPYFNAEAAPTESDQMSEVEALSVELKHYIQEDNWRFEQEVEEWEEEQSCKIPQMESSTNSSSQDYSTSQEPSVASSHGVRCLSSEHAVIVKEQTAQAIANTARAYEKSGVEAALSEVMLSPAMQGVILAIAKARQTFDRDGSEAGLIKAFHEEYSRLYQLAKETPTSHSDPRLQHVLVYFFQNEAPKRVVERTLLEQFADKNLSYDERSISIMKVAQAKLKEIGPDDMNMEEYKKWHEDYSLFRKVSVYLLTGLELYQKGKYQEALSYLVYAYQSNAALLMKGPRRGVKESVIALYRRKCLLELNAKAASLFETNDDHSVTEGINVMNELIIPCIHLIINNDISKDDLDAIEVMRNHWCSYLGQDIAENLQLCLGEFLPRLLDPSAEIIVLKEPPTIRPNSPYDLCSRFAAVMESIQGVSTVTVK
QUANTITY_NAME: IC50

1. CNc1c(C(=O)NCCc2ccc(N3CC4CCC(C3)N4)cc2)cnc2c1ccn2C [Compound I-12]
< 50 nM
2. CCn1ccc2c(OC)c(C(=O)NCCc3ccc(N4CC5CCC(C4)N5)cc3)cnc21 [Compound I-32]
50 to 500 nM
3. CCn1ccc2c(NC)c(C(=O)NCCc3ccc(N4CCNCC4)cc3)nnc21 [Compound I-28]
< 50 nM
4. CCn1ccc2c(NC)c(C(=O)NCCc3ccc(OC)c(OC)c3)cnc21 [Compound I-09]
50 to 500 nM
5. CNc1c(C(=O)NCCc2ccc(N3CC4CCC(C3)N4)cc2)cnc2[nH]ccc12 [Compound I-11]
50 to 500 nM
6. CCn1ccc2c(NC)c(C(=O)N[C@@H]3CCc4cc(N5CC6CCC(C5)N6)ccc4C3)cnc21 [Compound I-26]
50 to 500 nM

###

# IC50 per record follows
- TARGET_OR_SYSTEM: USP28 (Homo sapiens, UniProt Q96RU2)
QUANTITY_NAME: IC50

1) CCn1ccc2c(NC)c(C(=O)N[C@@H]3COc4cc(N5CC6CCC(C5)N6)ccc4C3)cnc21
50 to 500 nM
2) CCn1ccc2c(Cl)c(C(=O)NCCc3ccc(N4CC5CCC(C4)N5)cc3)cnc21
1000 to 10000 nM
3) CCn1ccc2c(NC)c(C(=O)N[C@H]3CCc4cc(N5CC6CCC(C5)N6)ccc4C3)cnc21
< 50 nM
4) CNc1c(C(=O)NCCc2ccc(N3CCNCC3)cc2)cnc2c1ccn2CC(F)(F)F
< 50 nM
5) CNc1c(C(=O)NCCc2ccc(N3CC4CCC(C3)N4)cc2)cnc2c1ccn2CC(F)(F)F
< 50 nM
